Provenance of the data: ChEMBL document CHEMBL4138315

Target: Opioid receptors; mu & delta (Homo sapiens, UniProt P41143+P35372)
Sequence (P35372 whole entry, looked up): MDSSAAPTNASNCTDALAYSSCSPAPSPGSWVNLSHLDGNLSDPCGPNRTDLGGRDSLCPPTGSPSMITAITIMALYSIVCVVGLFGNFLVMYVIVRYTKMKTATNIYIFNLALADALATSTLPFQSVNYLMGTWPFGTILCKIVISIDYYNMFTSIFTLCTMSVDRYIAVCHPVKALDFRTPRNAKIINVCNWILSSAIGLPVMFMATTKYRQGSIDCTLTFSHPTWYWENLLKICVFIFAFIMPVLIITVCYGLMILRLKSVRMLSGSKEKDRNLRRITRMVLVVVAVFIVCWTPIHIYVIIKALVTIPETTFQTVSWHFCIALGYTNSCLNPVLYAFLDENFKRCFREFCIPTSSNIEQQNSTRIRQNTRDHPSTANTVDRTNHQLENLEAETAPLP
Sequence (P41143 whole entry, looked up): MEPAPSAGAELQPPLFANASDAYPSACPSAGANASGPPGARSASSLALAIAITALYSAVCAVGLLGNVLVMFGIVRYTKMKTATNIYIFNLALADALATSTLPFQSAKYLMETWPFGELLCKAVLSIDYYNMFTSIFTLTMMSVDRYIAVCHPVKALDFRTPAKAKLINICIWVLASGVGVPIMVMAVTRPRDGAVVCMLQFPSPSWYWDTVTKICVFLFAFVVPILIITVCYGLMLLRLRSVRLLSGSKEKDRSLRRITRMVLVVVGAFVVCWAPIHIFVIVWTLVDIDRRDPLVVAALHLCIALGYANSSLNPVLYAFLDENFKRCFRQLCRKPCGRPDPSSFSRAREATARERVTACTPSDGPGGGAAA
Assay: Antagonist activity at human mu-delta opioid receptor heterodimer expressed in CHO cell membranes assessed as inhibition of CYM51010-induced [35S]-GTPgammaS binding at high site fraction preincubated for 5 mins followed by CYM51010 and [35S]-GTPgammaS addition measured after 80 mins relative to control
Format: functional
Endpoint name: Imax (%)
# value in %; strip the unit string

Check out these entries, answers already filled in.
Smiles data	Endpoint name	Observed value
N[C@@H](Cc1ccc(O)cc1)C(=O)N1Cc2ccccc2C[C@@H]1C(=O)NCC(=O)NCCCC(=O)N[C@H](CCCCNC(=O)CCNC(=O)CNC(=O)[C@@H](Cc1cccc2ccccc12)NC(=O)[C@H](Cc1ccccc1)NC(=O)[C@@H]1CCCN1C(=O)[C@@H](N)Cc1ccc(O)cc1)C(=O)O	Imax	43
N[C@@H](Cc1ccc(O)cc1)C(=O)N1Cc2ccccc2C[C@@H]1C(=O)NCC(=O)NCC(=O)NCCCCCC(=O)NCCC(=O)N[C@H](CCCCNC(=O)CCNC(=O)CCCCCNC(=O)CCNC(=O)CNC(=O)[C@@H](Cc1cccc2ccccc12)NC(=O)[C@H](Cc1ccccc1)NC(=O)[C@@H]1CCCN1C(=O)[C@@H](N)Cc1ccc(O)cc1)C(=O)O	Imax	37

Let's switch to this molecule now.
Challenge: Identify measured Imax obtained with Opioid receptors; mu & delta (Homo sapiens, UniProt P41143+P35372) for N[C@@H](Cc1ccc(O)cc1)C(=O)N1Cc2ccccc2C[C@@H]1C(=O)NCC(=O)NCCC(=O)NCCCCCC(=O)N[C@H](CCCCNC(=O)CCCCCNC(=O)CNC(=O)[C@@H](Cc1cccc2ccccc12)NC(=O)[C@H](Cc1ccccc1)NC(=O)[C@@H]1CCCN1C(=O)[C@@H](N)Cc1ccc(O)cc1)C(=O)O .
Response given: 41

* * *

Reported IC50 values are given for each entry in this list.
Biological target: Delta-type opioid receptor (Homo sapiens, UniProt P41143)
Assay: Antagonist activity at human DOR expressed in CHO cell membranes assessed as inhibition of CYM51010-induced [35S]-GTPgammaS binding preincubated for 5 mins followed by CYM51010 and [35S]-GTPgammaS addition measured after 80 mins
Type: functional
Details: cho
Your answer is read as nM, so omit the unit and give the number.

Challenge: Tell me measured IC50 for N[C@@H](Cc1ccc(O)cc1)C(=O)N1Cc2ccccc2C[C@@H]1C(=O)NCC(=O)NCCCCC(=O)N[C@H](CCCCNC(=O)CCCCNC(=O)CNC(=O)[C@@H](Cc1cccc2ccccc12)NC(=O)[C@H](Cc1ccccc1)NC(=O)[C@@H]1CCCN1C(=O)[C@@H](N)Cc1ccc(O)cc1)C(=O)O please.
Response given: 76

Challenge: Give the measured IC50 for N[C@@H](Cc1ccc(O)cc1)C(=O)N1Cc2ccccc2C[C@H]1C(=O)NCC(=O)NCC(=O)N[C@@H](CCCCNC(=O)CNC(=O)[C@@H](Cc1cccc2ccccc12)NC(=O)[C@H](Cc1ccccc1)NC(=O)[C@@H]1CCCN1C(=O)[C@@H](N)Cc1ccc(O)cc1)C(=O)O
Response given: 58

Challenge: Please list IC50 recorded for the compound N[C@@H](Cc1ccc(O)cc1)C(=O)N1Cc2ccccc2C[C@H]1C(=O)NCC(=O)NCC(=O)NCCCCCC(=O)NCCC(=O)N[C@@H](CCCCNC(=O)CCNC(=O)CCCCCNC(=O)CCNC(=O)CNC(=O)[C@@H](Cc1cccc2ccccc12)NC(=O)[C@H](Cc1ccccc1)NC(=O)[C@@H]1CCCN1C(=O)[C@@H](N)Cc1ccc(O)cc1)C(=O)O
Response given: 94

Challenge: In one line, give reported IC50 of the entry N[C@@H](Cc1ccc(O)cc1)C(=O)N1Cc2ccccc2C[C@H]1C(=O)NCC(=O)NCCC(=O)NCCCCCC(=O)N[C@@H](CCCCNC(=O)CCCCCNC(=O)CNC(=O)[C@@H](Cc1cccc2ccccc12)NC(=O)[C@H](Cc1ccccc1)NC(=O)[C@@H]1CCCN1C(=O)[C@@H](N)Cc1ccc(O)cc1)C(=O)O .
Response given: 100

Challenge: Entry N[C@@H](Cc1ccc(O)cc1)C(=O)N1Cc2ccccc2C[C@H]1C(=O)NCC(=O)NCCCC(=O)N[C@@H](CCCCNC(=O)CCNC(=O)CNC(=O)[C@@H](Cc1cccc2ccccc12)NC(=O)[C@H](Cc1ccccc1)NC(=O)[C@@H]1CCCN1C(=O)[C@@H](N)Cc1ccc(O)cc1)C(=O)O needs its IC50 filled in; supply it.
Response given: 68
